Let's look at some compounds and their measured viability, T/C.
Tested on: NCI-H196 complex spheroid growth, percent test/control
TEST_SUMMARY: Anticancer human tumor NCI-H196 cell line growth inhibition [AhR];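 further: seven days of drug exposure starting three days after plating; 100% = DMSO vehicle control wells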
SETUP_CONDITIONS: second compound 1 µM; first compound 0.1 µM; stronger effect = lower value

Sample records with viability, T/C:
[
  {
    "COMPOUND": "CC[C@@]1(O)C(=O)OCc2c1cc1n(c2=O)Cc2cc3c(CN(C)C)c(O)ccc3nc2-1 + Cc1ccccc1N=Nc1ccc(NC(=O)c2ccnn2C)c(C)c1",
    "TARGET_OR_TEST_SYSTEM": "NCI-H196 complex spheroid growth, percent test/control",
    "viability, T/C": "93.5%"
  },
  {
    "COMPOUND": "NS(=O)(=O)OCC1CC(n2ccc3c(NC4CCc5ccccc54)ncnc32)CC1O (stereo unspecified) + CC(CO)NC(=O)c1cc(-c2ccc(Cl)cc2)nn(-c2cnn(C)c2)c1=O",
    "TARGET_OR_TEST_SYSTEM": "NCI-H196 complex spheroid growth, percent test/control",
    "viability, T/C": "74.4%"
  },
  {
    "COMPOUND": "O=C(c1cc(Cc2n[nH]c(=O)c3ccccc23)ccc1F)N1CCN(C(=O)C2CC2)CC1 + Cc1cncc(-c2nc(NCCc3c[nH]c4ccccc34)c3ncn(C(C)C)c3n2)c1",
    "TARGET_OR_TEST_SYSTEM": "NCI-H196 complex spheroid growth, percent test/control",
    "viability, T/C": "90.5%"
  },
  {
    "COMPOUND": "CC[C@@]1(O)C(=O)OCc2c1cc1n(c2=O)Cc2cc3c(CN(C)C)c(O)ccc3nc2-1 + Cc1cncc(-c2nc(NCCc3c[nH]c4ccccc34)c3ncn(C(C)C)c3n2)c1",
    "TARGET_OR_TEST_SYSTEM": "NCI-H196 complex spheroid growth, percent test/control",
    "viability, T/C": "89.8%"
  },
  {
    "COMPOUND": "COc1cc(Nc2ncc3c(n2)-c2ccc(Cl)cc2C(c2c(F)cccc2OC)=NC3)ccc1C(=O)O + Cc1ccccc1N=Nc1ccc(NC(=O)c2ccnn2C)c(C)c1",
    "TARGET_OR_TEST_SYSTEM": "NCI-H196 complex spheroid growth, percent test/control",
    "viability, T/C": "88.9%"
  }
]

Next compound, viability, T/C to be filled in.
Kindly note the recorded viability, T/C for O=C(C=Cc1cccc(S(=O)(=O)Nc2ccccc2)c1)NO + Cc1cncc(-c2nc(NCCc3c[nH]c4ccccc34)c3ncn(C(C)C)c3n2)c1 , which is 115%
